system.name: recombinant HLA-DR401 (HLA-DRA1*01:01, HLA-DRB1*04:01) (Homo sapiens, UniProt P01903+P01911, A100K/A169T/F76Y/I96L/K127E/L162R/M171V/N62H/P40V/Q125Y/R42H/S133A/S149N/S66Y/V115G/V209L/W38E)
Construct: poly-histidine (C); made in house; host or cells: High Five (Hi5) insect cells, baculovirus (pAcGP67a)
test.details: biochemical
Type: binding
pIC50: −log10 of the molar value. Peptide text beside a SMILES is read from it.
Below, each entry is listed alongside its reported pIC50.
measured.metric: pIC50

- compound: "CC(C)C[C@H](NC(=O)[C@H](C)NC(=O)[C@H](C)N)C(=O)N[C@@H](CC(N)=O)C(=O)N[C@H](C(=O)N[C@@H](CCC(=O)O)C(=O)N[C@@H](CCCNC(=N)N)C(=O)N[C@H](C(=O)N[C@@H](CS)C(=O)N[C@@H](Cc1c[nH]cn1)C(=O)N[C@@H](CS)C(=O)N[C@@H](Cc1c[nH]c2ccccc12)C(=O)N[C@@H](CCC(=O)O)C(=O)N[C@@H](CCC(=O)O)C(=O)NCC(=O)O)[C@@H](C)O)C(C)C (H-AALNVERTCHCWEEG-OH)"
  observed.measurement: 7.48
- compound: "CC(C)C[C@H](NC(=O)[C@H](C)NC(=O)[C@H](C)N)C(=O)N[C@H](C(=O)N[C@@H](CC(=O)O)C(=O)N[C@@H](CC(=O)O)C(=O)N1CCC[C@H]1C(=O)N[C@H](C(=O)N[C@@H](CS)C(=O)N[C@@H](CCCNC(=N)N)C(=O)N[C@@H](CS)C(=O)N[C@@H](Cc1c[nH]c2ccccc12)C(=O)N[C@@H](CCC(=O)O)C(=O)N[C@@H](CCC(=O)O)C(=O)NCC(=O)O)[C@@H](C)O)C(C)C (H-AALVDDPTCRCWEEG-OH)"
  observed.measurement: 7.53
- compound: "CC(C)C[C@H](NC(=O)[C@H](C)NC(=O)[C@H](C)N)C(=O)N[C@@H](CCCNC(=N)N)C(=O)N[C@@H](CCC(=O)O)C(=O)N[C@@H](CCC(=O)O)C(=O)N[C@@H](Cc1c[nH]cn1)C(=O)N[C@H](C(=O)N[C@@H](CS)C(=O)N[C@@H](CCCCN)C(=O)N[C@@H](CS)C(=O)N[C@@H](Cc1c[nH]c2ccccc12)C(=O)N[C@@H](CCC(=O)O)C(=O)N[C@@H](CCC(=O)O)C(=O)NCC(=O)O)[C@@H](C)O (H-AALREEHTCKCWEEG-OH)"
  observed.measurement: 7.43
- compound: "CC(C)C[C@H](NC(=O)[C@H](C)NC(=O)[C@H](C)N)C(=O)N[C@@H](CO)C(=O)N[C@@H](CC(C)C)C(=O)N[C@@H](CCC(=O)O)C(=O)N[C@@H](CCCNC(=N)N)C(=O)N[C@@H](CO)C(=O)N[C@@H](CS)C(=O)N[C@@H](CCCCN)C(=O)N[C@@H](CS)C(=O)N[C@@H](Cc1c[nH]c2ccccc12)C(=O)N[C@@H](CCC(=O)O)C(=O)N[C@@H](CCC(=O)O)C(=O)NCC(=O)O (H-AALSLERSCKCWEEG-OH)"
  observed.measurement: 7.60

Value source: paper PMC7473865
